The following molecules are listed with their measured TGI values.
test system: UACC-257 melanoma; test: NCI tumour cell line growth inhibition, 48 h
resultType: TGI

- molecule: "COC(=O)/C=C\\n1c(C)cc(=O)[nH]c1=O"
  resultType: "TGI"
  result: "> 100 µM"
- molecule: "Nc1ccc(C2=NN(c3ccccc3)C(c3ccc(Cl)cc3)C2)cc1 (stereo unspecified)"
  resultType: "TGI"
  result: "11.2 µM"
- molecule: "COC(=O)CCC(=O)NC1=C(Nc2ccc(OC)cc2)C(=O)c2ccccc2C1=O"
  resultType: "TGI"
  result: "16.1 µM"
- molecule: "C[n+]1c(-c2ccc(/C=N/NC(=N)N/N=C/c3ccc(-c4cn5cc(Cl)ccc5[n+]4C)cc3)cc2)cn2cc(Cl)ccc21"
  resultType: "TGI"
  result: "> 100 µM"
- molecule: "OC(c1cc2ccccc2o1)c1cc2ccccc2s1 (stereo unspecified)"
  resultType: "TGI"
  result: "> 10 µM"
- molecule: "O=c1c(Oc2ccc(F)cc2F)cc2cnc(NC3CCOCC3)nc2n1CCCO"
  resultType: "TGI"
  result: "> 25 µM"
